- Tested on: NCI-H226 lung
- ASSAY_EXPLANATION: NCI-60 one-dose screen, 48 h (100 = growth as untreated, 0 = no growth, -100 = all killed)
- TEST_PARAMETERS: 10 µM unless noted
- Procedure: Growth inhibition of the NCI-H226 human Non-Small Cell Lung tumor cell line is measured as a screen for anti-cancer activity. Cells are grown in 96 well plates and exposed to the test compound for 48 hours. Compounds are tested at a single concentration, which is 10^-5 M for most compounds. The reported endpoint is percent growth (GI% or GIPRCNT), where numbers from 0 - 100% represent growth inhibition, and numbers from -100% - 0 represent cell death. […]
About 83,000 compounds went through this panel and 20% of them were active in at least one assay; those are over-represented in the sample as a whole.
Assign y whenever growth does not fall below 70%; assign n whenever it does.

Inquiry: Decide: growth of CNC(=O)CN1CCC(Oc2cc3c(Nc4cccc(Cl)c4F)ncnc3cc2OC)CC1 >= 70%?
Reply text: y

Inquiry: Decide: growth of CN(C)CCn1c(=O)c2c3cc4c(cc3n(CCN(C)C)c2c2ccc(Cl)cc21)OCO4 >= 70%?
Reply text: n

Inquiry: Decide: growth of COc1cc(NC2CCC(=O)N2c2ccc(Cl)cc2Cl)cc(OC)c1OC (centres undefined) >= 70%?
Reply text: y

Inquiry: Decide: growth of COc1ccc(F)c(F)c1C(=O)c1cnc(NC2CCN(S(C)(=O)=O)CC2)nc1N >= 70%?
Reply text: n

Inquiry: Decide: growth of C/C(=C(/c1ccc(Cl)cc1)c1ccc(OCCN2CCCCCC2)cc1)c1ccccc1 >= 70%?
Reply text: y

Inquiry: Decide: growth of COc1ccc(-c2ccc3ncc4c(c3c2)n(-c2ccc(N3CCNCC3)c(C(F)(F)F)c2)c(=O)n4C)cn1 >= 70%?
Reply text: n

Inquiry: Decide: growth of CCN1CCN(c2nc(C)cc(N(CCNc3ccnc4cc(Cl)ccc34)Cc3ccc4c(c3)OCO4)n2)CC1 >= 70%?
Reply text: y

Inquiry: Decide: growth of COc1c(C(NC(=O)c2ccccc2)c2sccc2C)cc(Cl)c2cccnc12 (centres undefined) >= 70%?
Reply text: y

====

- Tested on: BT-549 breast
- ASSAY_EXPLANATION: NCI-60 one-dose screen, 48 h
- TEST_PARAMETERS: 10 µM unless noted
This is part of a sample that, as a whole, favours compounds with a hit. Of some 83,000 tested, about 20% had one in any assay. Calls of active or inactive are those of the source. The calls were made as follows: active = growth percent below 10; inactive = the rest.
Please answer using one outcome listed in YES for active, NO for inactive

Inquiry: Give the logged outcome of this assay for the following molecule: CCNC(=O)C#Cc1ccc2c(C(=Nc3ccc(CN(C)C)cc3)c3ccccc3)c(O)[nH]c2c1
Reply text: NO

Inquiry: Give the logged outcome of this assay for the following molecule: NC1=Nc2ccccc2N(O)N1
Reply text: NO

Inquiry: Give the logged outcome of this assay for the following molecule: COc1ccc(C2OC(c3cc(-c4cc5ccccc5o4)nn3-c3ccccc3)=NN2C(C)=O)cc1 (stereo not drawn)
Reply text: NO

Inquiry: Give the logged outcome of this assay for the following molecule: CC(C)=CCc1cc2c(cc1O)C1=C(C(=O)C3=C(C1=O)S(=O)(=O)CCN3)C(C=C(C)C)O2 (stereo not drawn)
Reply text: YES

Inquiry: Give the logged outcome of this assay for the following molecule: O=C1/C(=C\c2cccc(OCCCCCOc3ccc(Cl)cc3)c2)N=C2SCCCN12
Reply text: NO

Inquiry: Give the logged outcome of this assay for the following molecule: CCc1nc(C(N)=O)c(Nc2ccc(N3CCC(N4CCN(C)CC4)CC3)c(OC)c2)nc1NC1CCOCC1
Reply text: NO

Inquiry: Give the logged outcome of this assay for the following molecule: O=c1nc2c(-c3nc4ccccc4s3)n[nH]n2c2sc3c(c12)CCCC3
Reply text: NO

Inquiry: Give the logged outcome of this assay for the following molecule: CCN(CCCOc1ccc2c(Nc3cc(CC(=O)Nc4cccc(F)c4)[nH]n3)ncnc2c1)CCOP(=O)(O)O
Reply text: NO

Inquiry: Give the logged outcome of this assay for the following molecule: CC(=O)NCC(=O)N1[C@@H]2CC[C@H]1c1ccc(Nc3ncc(C(F)(F)F)c(NC4CCC4)n3)cc12
Reply text: NO

Inquiry: Give the logged outcome of this assay for the following molecule: COc1ccc(C2CC(=O)c3c(O)c(OC)c(OC)c(OC)c3O2)c(O)c1 (stereo not drawn)
Reply text: NO

Inquiry: Give the logged outcome of this assay for the following molecule: Nc1cc(C(F)(F)F)c(-c2cc(N3CCOCC3)nc(N3CCOCC3)n2)cn1
Reply text: YES

Inquiry: Give the logged outcome of this assay for the following molecule: CN(C)CCn1c(=O)c2c3cc4c(cc3n(CCN(C)C)c2c2ccc(Cl)cc21)OCO4
Reply text: NO

Inquiry: Give the logged outcome of this assay for the following molecule: O=C1NC(=O)[C@@H](c2cn3c4c(cccc24)CCC3)[C@@H]1c1c[nH]c2ccccc12
Reply text: NO

The values you see were collected from PubChem BioAssay (NCI).
